Quick reference: EC90 of the listed items.
# Tested on: HSV-1
# assay.method.text: Antiviral activity, HSV-1 in Vero cells, plaque method
# Assay type: cell-based
# cond: Human alphaherpesvirus 1, 20 hours, 90% inhibition of plaque formation
# Description: An Assay Method for Antiviral Activity These complementary assay methods examine the capacity of a compound to inhibit the generation of new viruses and to inhibit the toxicity of the compound against the host cell. Toxicity indirectly decreases the generation of viruses. Thus, it is important to simultaneously conduct both assays in order to directly compare the results. […] In this case, a substance to which 2% FBS-DMEM not comprising any test compound had been added was determined as a control. […]
Please state the figure in µM; there is no need to write the unit.

Previously resolved entries follow.
| chemical.string | EC90 [µM] |
| --- | --- |
| Cc1c(NC(=O)OC(C)(C)C)ccc2nc(N3Cc4ccccc4C[C@H]3C(=O)N(C)CCc3ccccn3)oc(=O)c12 | 10.1 |
| Cc1c(NC(=O)OC(C)(C)C)ccc2nc(N[C@H](C(=O)N(C)CCc3cccnc3)C(C)(C)C)oc(=O)c12 | 4.6 |
| Cc1c(NC(=O)c2cccc(CCl)c2)ccc2nc(NC(C)(C)C(=O)N(C)CCc3ccccn3)oc(=O)c12 | 7.8 |

I would be grateful if you could share the reported EC90 for Cc1c(NC(=O)OC(C)(C)C)ccc2nc(N[C@@H](CCc3ccccc3)C(=O)N(C)CCc3ccncc3)oc(=O)c12 .
3.7

Another: Cc1c(NC(=O)OC(C)(C)C)ccc2nc(N[C@H](C(=O)N(C)CCc3ccncc3)C(C)(C)C)oc(=O)c12
6

Another: Cc1cccc(C(=O)Nc2ccc3nc(NC(C)(C)C(=O)N(C)CCc4ccccn4)oc(=O)c3c2C)c1
6.2

* * *

# Tested on: Vero cells
# assay.method.text: Cytotoxicity, Vero cells, Alamar Blue
# Format: cell-based
# cond: 25 μM, 20 hours
measured.parameter: Cell viability (% of control) (%)
Please state the figure in %; there is no need to write the unit.

Previously resolved entries follow.
| chemical.string | unit.tag | Cell viability (% of control) |
| --- | --- | --- |
| Cc1c(NC(=O)OC(C)(C)C)ccc2nc(N3Cc4ccccc4C[C@H]3C(=O)N(C)CCc3cccnc3)oc(=O)c12 | % | 44.1 |
| Cc1c(NC(=O)OC(C)(C)C)ccc2nc(N[C@@H](Cc3ccccc3)C(=O)N(C)CCc3cccnc3)oc(=O)c12 | % | 70.1 |
| Cc1c(NC(=O)c2ccccc2Cl)ccc2nc(NC(C)(C)C(=O)N(C)CCc3ccccn3)oc(=O)c12 | % | 74.2 |

Continue with the next compound.
What reported Cell viability (% of control) corresponds to Cc1c(NC(=O)c2ccccc2I)ccc2nc(NC(C)(C)C(=O)N(C)CCc3ccccn3)oc(=O)c12 on Vero cells?
69.1

* * *

Measured pIC50 (HSV-1 protease (Human herpesvirus 1, UniProt P10210))
FYI, pIC50 means -log10 of a concentration in mol per litre.

I would be grateful if you could share the reported pIC50 for Cc1c(NC(=O)CCCNC(=O)c2cccs2)ccc2nc(NC(C)(C)C(=O)N(C)CCc3ccccn3)oc(=O)c12 .
6.52

Another: Cc1c(NC(=O)OC(C)(C)C)ccc2nc(NC3(C(=O)N(C)CCc4cccnc4)CCCC3)oc(=O)c12
6.40

* * *

# tested.on: HSV-1 protease (Human herpesvirus 1)
# Sequence (P10210 1-247): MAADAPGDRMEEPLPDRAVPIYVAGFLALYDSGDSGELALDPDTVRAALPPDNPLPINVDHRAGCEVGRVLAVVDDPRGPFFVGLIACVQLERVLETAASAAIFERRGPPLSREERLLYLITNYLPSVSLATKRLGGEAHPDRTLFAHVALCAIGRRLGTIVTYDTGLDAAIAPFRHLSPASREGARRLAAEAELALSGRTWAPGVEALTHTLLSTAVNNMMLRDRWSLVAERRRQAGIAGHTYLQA
Quick reference: pIC50 of the listed items.
FYI, pIC50 means -log10 of a concentration in mol per litre.

Previously resolved entries follow.
| compound | pIC50 |
| --- | --- |
| Cc1c(NC(=O)OC(C)(C)C)ccc2nc(NC3(C(=O)N(C)CCc4ccccn4)CC3)oc(=O)c12 | 5.80 |
| Cc1c(NC(=O)OC(C)(C)C)ccc2nc(N[C@@H](CC3CCCCC3)C(=O)NCc3ccncc3)oc(=O)c12 | 5.36 |
| Cc1c(NC(=O)OC(C)(C)C)ccc2nc(NC3(C(=O)N(C)CCc4ccncc4)CCCCC3)oc(=O)c12 | 5.96 |

Continue with the next compound.
What reported pIC50 corresponds to COc1ccc(CC(Nc2nc3ccc(NC(=O)OC(C)(C)C)c(C)c3c(=O)o2)C(=O)NCc2ccccn2)cc1 (stereo not shown) [compound 230, reference compound] on HSV-1 protease (Human herpesvirus 1)?
6.40
